test: Determination of the 50% lethal dose (LD50) in mice; details: mouse, in vivo, po, read-out: LD50 (p.o.)
metric_name: LD50 (mg/kg)

1) CCOC(=O)CC1CCN(CCOC(c2ccccc2)c2ccccc2)CC1 :: 585
